Target: T1, recombinant mouse DLL4 (C-terminally His-tagged extracellular domain, R&D Systems) (mouse, UniProt Q9JI71 27-532)
T1 construct: extracellular domain; also called rmDLL4; mDLL4
T1 sequence (Q9JI71 27-532): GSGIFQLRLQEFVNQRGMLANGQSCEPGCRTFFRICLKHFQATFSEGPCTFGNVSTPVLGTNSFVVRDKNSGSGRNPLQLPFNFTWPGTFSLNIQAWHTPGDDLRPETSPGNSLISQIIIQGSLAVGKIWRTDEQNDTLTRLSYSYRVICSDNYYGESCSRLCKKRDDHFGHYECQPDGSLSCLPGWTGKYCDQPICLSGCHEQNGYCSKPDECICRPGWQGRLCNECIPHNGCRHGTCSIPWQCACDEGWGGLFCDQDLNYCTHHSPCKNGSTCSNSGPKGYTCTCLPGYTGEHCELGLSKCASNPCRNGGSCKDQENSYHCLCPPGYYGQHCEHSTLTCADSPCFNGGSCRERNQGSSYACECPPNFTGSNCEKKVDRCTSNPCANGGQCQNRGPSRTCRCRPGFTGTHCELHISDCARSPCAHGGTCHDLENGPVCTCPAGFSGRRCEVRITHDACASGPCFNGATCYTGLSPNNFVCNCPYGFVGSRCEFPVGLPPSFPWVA
Assay: ProteOn off-rate screen, periplasmic extract, coated mouse DLL4
# key: entry, value: koff

>  <BINDER>
DLLBII129G10 (VHH) VHH: EVQLVESGGGLVQAGGSLRLSCAASGRTFSSYAMAWYRQAPGKEREYVAAIRWSGGTAYYADSVQSRFTISRDNAKNTVYLQMNSLKPEDTAVYYCANRAPDTRLEPYEYDHWGQGTQVTVSS

>  <koff, s⁻¹>
0.00026

$$$$
>  <BINDER>
DLLBII130B02 (VHH) VHH: EVQLVESGGGLVQAGGSLRLSCAASGRTFSSYAMAWFRQAPGKEREYVAAIRWSGGTAYYADSVQGRFTISRDNAKNTVYLQMYSLKPEDTAVYYCANRAPDTRLAPYLYDHWGQGTQVTVSS

>  <koff, s⁻¹>
0.00029

$$$$
>  <BINDER>
DLLBII129H02 (VHH) VHH: EVQLVESGGGLVQAGGSLRLSCAASGRTFSSYAMAWYRQAPGKEREYVAAIRWSGGTAYYADSVQGRFTISRDNAKNTVYLQMNSLKPEDTAVYYCANRAPDTRLRPYEYDYWGQGTQVTVSS

>  <koff, s⁻¹>
0.00034

$$$$
>  <BINDER>
DLLBII129G09 (VHH) VHH: EVQLVESGGGLVQAGGSLRLSCAASGRTFSSYAMAWYRQAPGKEREYVAAIRWSGETAYYADSVQGRFTISRDNAKNTVYLQMNSLKPEDTAVYYCANRAPDTRLEPYLYDHWGQGTQVTVSS

>  <koff, s⁻¹>
0.00034

$$$$
>  <BINDER>
DLLBII129B02 (VHH) VHH: EVQLVESGGGLVQAGGSLSLSCAASGRTFSSYAMAWYRQAPGKEREYVAAIRWSGGTAYYADSVQGRFTISRDNAKNTVYLQMNSLKPEDTAVYYCANRAPDTRLEPYEYDHWGQGTQVTVSS

>  <koff, s⁻¹>
0.00026

$$$$
